Experiment: Cytotoxicity against MDCK cells by MTT assay
Assay type: toxicity, cell-based, Canis lupus familiaris
Conditions: dog
outcome measure: CC50 (µM)

[[record]]
compound_structure = "O=[N+]([O-])c1ccc(Sc2cccc(-n3ccnc3)c2)c2nonc12"
value_units = "µM"
observed_value = 20

[[record]]
compound_structure = "O=[N+]([O-])c1ccc(Oc2ccc(-n3cc(CO)nn3)cc2)c2nonc12"
value_units = "µM"
observed_value = 40

